Test System: full length SGK1 (Homo sapiens)
Construct: 125 μM full length SGK1 (Life Technologies Part #PR7358A); purchased Life Technologies PR7358A
Sequence (O00141 whole entry): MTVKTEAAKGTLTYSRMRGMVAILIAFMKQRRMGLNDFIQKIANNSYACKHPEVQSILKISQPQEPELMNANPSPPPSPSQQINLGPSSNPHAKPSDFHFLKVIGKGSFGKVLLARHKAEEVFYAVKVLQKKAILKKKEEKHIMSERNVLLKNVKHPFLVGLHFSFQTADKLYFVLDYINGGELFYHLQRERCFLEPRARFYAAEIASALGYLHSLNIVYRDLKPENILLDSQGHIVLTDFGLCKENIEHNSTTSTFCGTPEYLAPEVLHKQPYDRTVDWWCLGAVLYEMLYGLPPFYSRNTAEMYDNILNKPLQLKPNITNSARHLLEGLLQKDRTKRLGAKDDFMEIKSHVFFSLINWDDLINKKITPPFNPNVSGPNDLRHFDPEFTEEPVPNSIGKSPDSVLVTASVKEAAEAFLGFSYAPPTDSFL
Assay Overview: SGK1 inhibition Assay A (Caliper LabChip electrophoretic separation of fluorescent peptide substrate and phosphorylated product)
Type: biochemical
Measurement Parameters: Assay A; 20 μM ATP, 40 min incubation; read-out: SGK1 IC50
Where a name gives a salt, the structure may show the parent alone.

>  <Compound>
COC(=O)N1CC=C(c2cc(N3CCC[C@@H](NC(=O)c4sc(C)nc4OCCN(C)C)C3)c3c(N)ncnn23)C1 [Example 353]

>  <IC50 (nM)>
16

$$$$
>  <Compound>
NCCOc1cc(Cl)sc1C(=O)N[C@@H]1CCCN(c2cc(-c3cncnc3)n3ncnc(N)c23)C1 [Example 327]

>  <IC50 (nM)>
9

$$$$
>  <Compound>
COc1cc(-c2cc(N3CCC[C@@H](NC(=O)c4ccc(Cl)s4)C3)c3c(N)ncnn23)ccn1 [Example 215, TFA]

>  <IC50 (nM)>
6

$$$$
>  <Compound>
Nc1ncnn2c(C3=CCN(C(=O)c4ccccn4)C3)cc(N3CCC[C@@H](NC(=O)c4ccc(Cl)s4)C3)c12 [Example 900]

>  <IC50 (nM)>
12

$$$$
